Reference source: paper PMC11191600

system-tested: human dopamine D4.4 receptor (Homo sapiens, UniProt P21917)
Sequence (P21917 whole entry): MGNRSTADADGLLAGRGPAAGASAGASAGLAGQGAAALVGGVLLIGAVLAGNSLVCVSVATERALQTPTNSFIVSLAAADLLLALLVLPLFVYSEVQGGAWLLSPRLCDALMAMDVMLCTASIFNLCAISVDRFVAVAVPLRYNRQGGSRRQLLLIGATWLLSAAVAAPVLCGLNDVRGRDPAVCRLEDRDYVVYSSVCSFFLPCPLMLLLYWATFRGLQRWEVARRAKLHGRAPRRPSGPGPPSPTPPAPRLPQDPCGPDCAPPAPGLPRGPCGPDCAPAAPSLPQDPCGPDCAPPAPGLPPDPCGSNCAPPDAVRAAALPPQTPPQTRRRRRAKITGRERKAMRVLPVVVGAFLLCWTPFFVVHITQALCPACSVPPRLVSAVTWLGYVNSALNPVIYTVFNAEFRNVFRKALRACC
method-description: Human dopamine D4.4 receptor radioligand binding assay (Eurofins)
experimental-parameters: 10 μM; [3H]Spiperone binding; Eurofins Discovery
reported-metric: % Inhibition at 10 μM D4.4 (%)
Answers are plain numbers, in %.

compound: Cc1ccc(C(=O)N2CC3(CCN(Cc4c[nH]c5cc(F)ccc45)C(C)C3)C2)cc1C (centres unmarked)
experimental-result: 89
--
compound: Cc1ccc(C(=O)N2CC3(CCN(Cc4n[nH]c5cc(F)ccc45)CC3)C2)cc1C
experimental-result: 90
--
compound: Cc1ccc(C(=O)N2CC3(CCN(Cc4ccc(F)c(F)c4)CC3)C2)cc1C
experimental-result: 88

// for each compound below, give its % Inhibition at 10 μM D4.4
1. Cc1ccc(C(=O)N2CC3(CCN(Cc4c[nH]c5cc(F)ccc45)CC3C)C2)cc1C (centres unmarked)
2. O=C(c1cc(Cl)cc(Cl)c1)N1CC2(CCN(Cc3c[nH]c4cc(F)ccc34)CC2)C1

1: 85; 2: 49

* * *

method-description: Kinetic solubility (shake flask, McIlvaine buffer)
Type: physicochemical
experimental-parameters: McIlvaine buffer, pH 6.8, aqueous buffer, kinetic from dmso stock
reported-metric: solubility at 18 h (µM)
Give bare numbers, in µM.

For the compound Cc1ccc(C(=O)N2CC3(CCN(Cc4cn(C)c5ccccc45)CC3)C2)cc1C [Compound 12] , give its reported solubility at 18 h.
87.4

* * *

For each of the molecules below, state its Solubility pH = 2.2.
method-description: Kinetic solubility (shake flask, McIlvaine buffer)
Assay type: physicochemical
experimental-parameters: kinetic; McIlvaine buffer pH 2.2; 100 µM; 18 hours room temperature
One number for each entry, in µM.

Worked examples, 3 molecules total:
molecule: Cc1ccc(C(=O)N2CC3(CCN(Cc4c[nH]c5cc(F)ccc45)CC3C)C2)cc1C (stereo not shown)
Solubility pH = 2.2 / µM: 90.5
--
molecule: Cc1ccc(C(=O)N2CC3(CCN(Cc4c[nH]c5cc(F)ccc45)CC3)C2)cc1
Solubility pH = 2.2 / µM: 91.9
--
molecule: Cc1ccc(C(=O)N2CC3(CCN(Cc4n[nH]c5cc(F)ccc45)CC3)C2)cc1C
Solubility pH = 2.2 / µM: 89.4

For the molecule `Cc1cccc(C(=O)N2CC3(CCN(Cc4c[nH]c5cc(F)ccc45)CC3)C2)c1` , give its reported Solubility pH = 2.2.
91.2

* * *

system-tested: Human recombinant dopamine D2L receptor (Homo sapiens, UniProt P14416)
Sequence (P14416 whole entry): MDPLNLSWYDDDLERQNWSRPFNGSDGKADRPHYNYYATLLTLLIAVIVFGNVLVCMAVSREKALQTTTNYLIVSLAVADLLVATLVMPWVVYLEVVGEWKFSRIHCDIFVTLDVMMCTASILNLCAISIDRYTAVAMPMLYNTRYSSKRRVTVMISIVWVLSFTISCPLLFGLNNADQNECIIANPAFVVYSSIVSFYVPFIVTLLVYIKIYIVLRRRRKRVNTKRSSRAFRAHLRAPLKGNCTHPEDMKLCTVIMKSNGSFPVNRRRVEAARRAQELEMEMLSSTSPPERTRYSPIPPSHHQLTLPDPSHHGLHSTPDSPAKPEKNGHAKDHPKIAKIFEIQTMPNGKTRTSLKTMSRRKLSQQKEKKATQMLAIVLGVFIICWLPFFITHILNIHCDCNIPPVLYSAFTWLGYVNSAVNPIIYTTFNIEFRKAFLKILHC
method-description: Human dopamine D2L receptor radioligand binding assay (Eurofins)
experimental-parameters: 10 μM; [3H]Spiperone binding; Eurofins Discovery
reported-metric: % Inhibition at 10 μM D2L (%)
Give bare numbers, in %.

Worked examples, 2 compounds total:
smiles-representation: Cc1ccc(C(=O)N2CC3(CCN(Cc4n[nH]c5cc(F)ccc45)CC3)C2)cc1C
reported-metric: % Inhibition at 10 μM D2L
experimental-result: 3

smiles-representation: O=C(c1ccc(Cl)cc1Cl)N1CC2(CCN(Cc3c[nH]c4cc(F)ccc34)CC2)C1
reported-metric: % Inhibition at 10 μM D2L
experimental-result: 23

From here, focus on the item given below.
For the compound `Cc1ccc(S(=O)(=O)N2CC3(CCN(Cc4c[nH]c5cc(F)ccc45)CC3)C2)cc1` , give its reported % Inhibition at 10 μM D2L.
50
